# System: Spodoptera exigua
# ASSAY_TEXT: Insecticidal activity against Spodoptera exigua assessed as increase of larval mortality at 5 umol/g in artificial diet after 9 days relative to control
# Format: functional
PROPERTY_MEASURED: Activity (%)
Give bare numbers, in %.

[
  {
    "COMPOUND": "CCCCCCCCCCCCCCCCCc1ccco1 [2-(HEPTADECYL)FURAN]",
    "RESULT": 95
  },
  {
    "COMPOUND": "CCCCCCCCCCCCCCCc1ccco1",
    "RESULT": 93
  }
]

Attention now shifts to the item below.
Look up Activity: "CCCCCCCCCCCCCCCCCCc1ccco1"
68
